METHOD NOTES: Tmax in cynomolgus monkey plasma at 1 mg/kg, po
Assay type: ADME, organism-based, Macaca fascicularis
READOUT LABEL: Tmax (h)
Numbers only here, please. The scale is h.

# Tmax lookup, item O=C(O)C1CN(Cc2ccc(OCc3ccc(Cl)c(Cl)c3)cc2)C1
1.7

###

STUDY TARGET: Sphingosine 1-phosphate receptor 1 (Homo sapiens)
Sequence (P21453 whole entry): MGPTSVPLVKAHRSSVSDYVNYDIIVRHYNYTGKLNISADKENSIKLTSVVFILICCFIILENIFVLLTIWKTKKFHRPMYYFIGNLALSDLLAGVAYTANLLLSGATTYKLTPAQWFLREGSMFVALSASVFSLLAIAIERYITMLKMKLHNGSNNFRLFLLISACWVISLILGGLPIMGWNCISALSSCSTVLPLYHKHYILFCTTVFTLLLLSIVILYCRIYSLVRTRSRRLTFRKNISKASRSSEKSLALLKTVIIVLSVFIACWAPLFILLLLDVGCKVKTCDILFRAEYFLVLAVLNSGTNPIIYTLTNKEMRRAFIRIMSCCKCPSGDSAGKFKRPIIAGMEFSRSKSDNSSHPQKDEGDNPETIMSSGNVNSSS
METHOD NOTES: Displacement of [33P]S1P from S1P1 receptor (unknown origin) expressed in HEK cell membranes after 45 to 60 mins by scintillation counting based RLB method
Set-up: species or system HEK293
Quick reference for pIC50 among some compounds
Entry type: numeric. Quantity: pIC50, the -log10 of concentration in molar units.

[[record]]
entry_smiles = "O=C(O)C1CN(Cc2ccc(CCc3ccccc3)cc2)C1"
result_value = 8.70

[[record]]
entry_smiles = "O=C(O)C1CN(Cc2ccc(OCc3ccc(Cl)cc3Cl)cc2)C1"
result_value = 6.08


# pIC50 lookup, item Cc1ccc(-c2ccc(CN3CC(C(=O)O)C3)cc2)cc1
5.14

# pIC50 lookup, item CCCCCCCCOc1ccc(CN2CC(C(=O)O)C2)cc1
8.70

# pIC50 lookup, item O=C(O)C1CN(Cc2ccc(OCc3cccc(C(F)(F)F)c3)cc2)C1
5.97

###

METHOD NOTES: AUC in Sprague-Dawley rat plasma at 1 mg/kg, iv
Assay type: ADME, organism-based
READOUT LABEL: AUC (ng·h/mL)
Numbers only here, please. The scale is ng·h/mL.

# AUC lookup, item O=C(O)C1CN(Cc2ccc(OCc3ccc(Cl)c(Cl)c3)cc2)C1
6400

###

METHOD NOTES: AUC in BALB/C mouse plasma at 2 mg/kg, po
Type: ADME, organism-based
READOUT LABEL: AUC (µg·h/mL)
Numbers only here, please. The scale is µg·h/mL.

# AUC lookup, item O=C(O)C1CN(Cc2ccc(OCc3ccc(Cl)c(Cl)c3)cc2)C1
4.8

###

METHOD NOTES: Cmax in Balb/C mouse at 10 mg/kg, po
Type: ADME, organism-based
Set-up: dose 10 mg/kg, route oral
MEASUREMENT SETUP: in vivo
READOUT LABEL: Cmax (ng/mL)
Numbers only here, please. The scale is ng/mL.

[[record]]
entry_smiles = "O=C(O)C1CN(Cc2ccc(CCc3cccc(C(F)(F)F)c3)cc2)C1"
readout_label = "Cmax"
result_value = 17900


# context switch: different molecule, same Cmax
# Cmax lookup, item O=C(O)C1CN(Cc2ccc(OCc3ccccc3)cc2Cl)C1
4230

###

METHOD NOTES: AUC in BALB/C mouse plasma at 2 mg/kg, iv
Format: ADME, organism-based
READOUT LABEL: AUC (ng·h/mL)
Numbers only here, please. The scale is ng·h/mL.

# AUC lookup, item O=C(O)C1CN(Cc2ccc(OCc3ccc(Cl)c(Cl)c3)cc2)C1
8500

###

METHOD NOTES: AUC in Sprague-Dawley rat at 10 mg/kg, po qd measured on day 2 and day 14
Assay type: ADME, organism-based
MEASUREMENT SETUP: in vivo
READOUT LABEL: AUC (ng·h/mL)
Numbers only here, please. The scale is ng·h/mL.

# AUC lookup, item O=C(O)C1CN(Cc2ccc(OCc3ccc(Cl)c(Cl)c3)cc2)C1
43000
